Origin of the recorded values: ChEMBL document CHEMBL1152624

Tested on: L929
Test Protocol: Cytoprotective activity in mouse L929 cells assessed as inhibition of TNF-alpha-induced cytotoxicity at 3 uM by MTT assay relative to untreated control
Format: functional
Could you please report measured inhibition at 3 µM for the items listed next?
# value in %; strip the unit string

Lookup: // map O=C(/C=C/C=C/c1ccc2c(c1)OCO2)N1CCCCC1 [PIPERINE] to recorded inhibition at 3 µM (system: L929)
Found: 10

Lookup: // map CC(C)CNC(=O)/C=C/CCCCCC/C=C/c1ccc2c(c1)OCO2 [PIPERCHABAMIDE D] to recorded inhibition at 3 µM (system: L929)
Found: 8

Lookup: // map COC(=O)/C=C/C=C/c1ccc2c(c1)OCO2 [METHYL PIPERATE] to recorded inhibition at 3 µM (system: L929)
Found: 9

Lookup: // map O=Cc1ccc2c(c1)OCO2 [PIPERONAL] to recorded inhibition at 3 µM (system: L929)
Found: 1

---

Tested on: Hepatocyte
Test Protocol: Hepatoprotective activity in ddY mouse hepatocytes assessed as inhibition of D-galactosamine/TNFalpha-induced cytotoxicity at 10 uM after 20 hrs by MTT assay relative to untreated control
Type: functional
Could you please report measured inhibition at 10 µM for the items listed next?
# value in %; strip the unit string

Lookup: What value of measured inhibition at 10 µM is listed for O=C1C=CCCN1C(=O)CCc1ccccc1 [PIPERCHABAMIDE A] ?
Found: 32

Lookup: What value of measured inhibition at 10 µM is listed for CC(C)CNC(=O)/C=C/CCCCCC/C=C/c1ccc2c(c1)OCO2 [PIPERCHABAMIDE D] ?
Found: 77

Lookup: What value of measured inhibition at 10 µM is listed for CC(C)CNC(=O)/C=C/C=C/CCCCCCCC/C=C/c1ccc2c(c1)OCO2 [BRACHYSTAMIDE B] ?
Found: 11

Lookup: What value of measured inhibition at 10 µM is listed for O=C(/C=C/C=C/CCCCCC/C=C/c1ccc2c(c1)OCO2)N1CCCCC1 [PIPERCHABAMIDE C] ?
Found: 52

Lookup: What value of measured inhibition at 10 µM is listed for "CCCCCCCCCCCCC/C=C/C=C/C(=O)NCC(C)C" ?
Found: 41

Lookup: What value of measured inhibition at 10 µM is listed for COC(=O)/C=C/C=C/c1ccc2c(c1)OCO2 [METHYL PIPERATE] ?
Found: 29

Lookup: What value of measured inhibition at 10 µM is listed for CC(C)CNC(=O)/C=C/CCCC/C=C/c1ccc2c(c1)OCO2 [RETROFRACTAMIDE C] ?
Found: 31

Lookup: What value of measured inhibition at 10 µM is listed for "O=C(/C=C/CCc1ccc2c(c1)OCO2)N1CCCCC1" ?
Found: 50

Lookup: What value of measured inhibition at 10 µM is listed for "CCCCCCC/C=C/C=C/C(=O)NCC(C)C" ?
Found: 31

Lookup: What value of measured inhibition at 10 µM is listed for "CCCCC/C=C/C=C/C(=O)NCC(C)C" ?
Found: 25

Lookup: What value of measured inhibition at 10 µM is listed for "CCCCC/C=C\CCCCCCCC/C=C/C=C/C(=O)NCC(C)C" ?
Found: 19

Lookup: What value of measured inhibition at 10 µM is listed for "O=C(CCCCCC/C=C/c1ccc2c(c1)OCO2)N1CCCCC1" ?
Found: 33

Lookup: What value of measured inhibition at 10 µM is listed for "CC(C)CNC(=O)/C=C/C=C/c1ccc2c(c1)OCO2" ?
Found: 54

Lookup: What value of measured inhibition at 10 µM is listed for O=C(/C=C/CCCCCC/C=C/c1ccc2c(c1)OCO2)N1CCCCC1 [PIPERCHABAMIDE B] ?
Found: 74

Lookup: What value of measured inhibition at 10 µM is listed for COc1cc(C2Oc3cc([C@H]4Oc5cc(O)cc(O)c5C(=O)[C@@H]4O)ccc3OC2CO)ccc1O (stereo not given in full) ?
Found: 37

Lookup: What value of measured inhibition at 10 µM is listed for O=C(/C=C\C1[C@@H](CCc2ccc3c(c2)OCO3)C(C(=O)N2CCCCC2)[C@H]1c1ccc2c(c1)OCO2)N1CCCCC1 (stereo not given in full) [PIPERCHABAMIDE G] ?
Found: 104

Lookup: What value of measured inhibition at 10 µM is listed for "CC(C)CNC(=O)/C=C/C=C/CCCCCC/C=C/c1ccc2c(c1)OCO2" ?
Found: 33

Lookup: What value of measured inhibition at 10 µM is listed for "O=Cc1ccc2c(c1)OCO2" ?
Found: 23

Lookup: What value of measured inhibition at 10 µM is listed for "O=C(/C=C/C=C/CCCC/C=C/c1ccc2c(c1)OCO2)N1CCCCC1" ?
Found: 49

Lookup: What value of measured inhibition at 10 µM is listed for CC(C)CNC(=O)/C=C/C=C/CCCC/C=C/c1ccc2c(c1)OCO2 [RETROFRACTAMIDE B] ?
Found: 51
